tested on: 362531-283-R-J2-PDC complex spheroid viability; assay: Anticancer human tumor 362531-283-R-J2-PDC patient-derived colon adenocarcinoma cell line growth inhibition [RAS]; details: second compound 0.003 µM; first compound 1 µM; active compounds read low;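 further: spheroids exposed to the agents for 7 days before readout; luminescence viability as percent of DMSO vehicle control wells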
reported.property: viability, T/C (%)
Answers are plain numbers, in %.

These solved cases illustrate the format of a correct answer.
compound	viability, T/C (%)
Nc1ccn(C2OC(CO)C(O)C2(F)F)c(=O)n1 (centres undefined) + CCn1c(-c2cccnc2C(C)OC)c2c3cc(ccc31)N1CCOC(CC(NC(=O)C(C(C)C)N(C)C(=O)C3(F)CCN(C(=O)C#CC(C)(C)N(C)C)CC3)C(=O)N3CCCC(N3)C(=O)OCC(C)(C)C2)C1	33.2
CCC(CC)c1cc(NC2CCC(N)C2)n2nccc2n1 (centres undefined) + CCn1c(-c2cccnc2C(C)OC)c2c3cc(ccc31)N1CCOC(CC(NC(=O)C(C(C)C)N(C)C(=O)C3(F)CCN(C(=O)C#CC(C)(C)N(C)C)CC3)C(=O)N3CCCC(N3)C(=O)OCC(C)(C)C2)C1	101
CC(C)NCC(C(=O)N1CCN(c2ncnc3c2C(C)CC3O)CC1)c1ccc(Cl)cc1 (centres undefined) + CCn1c(-c2cc(N3CCN(C)CC3)cnc2C(C)OC)c2c3cc(ccc31)-c1csc(n1)CC(NC(=O)C1CC1C)C(=O)N1CCCC(N1)C(=O)OCC(C)(C)C2	98.7

// next item, viability, T/C requested
(Q) Observed viability, T/C on 362531-283-R-J2-PDC complex spheroid viability for C=CC(=O)N1CCN(c2nc(OCC3CCCN3C)nc3c(F)c(-c4nc(N)cc(C)c4C(F)(F)F)c(Cl)cc23)C(C)C1 (centres undefined) + CCn1c(-c2cc(N3CCN(C)CC3)cnc2C(C)OC)c2c3cc(ccc31)-c1csc(n1)CC(NC(=O)C1CC1C)C(=O)N1CCCC(N1)C(=O)OCC(C)(C)C2 , please.
(A) 91.7

Reference source for all entries: PubChem BioAssay AID2060909
